I'd appreciate it if you could supply logP values for the items below.
# experiment notes: Octanol:water partition coefficient
# Type: physicochemical
# cond: read-out: Octanol: water partition coefficient (log P)

{"molecule": "NC(=O)c1ncn(C2OC(CNCc3ccccc3)C(O)C2O)c1N (centres unmarked) [GP-531]", "logP": -0.91}

# return recorded logP for entry CC(C)(C)C(=O)O[C@@H]1[C@H](OC(=O)C(C)(C)C)[C@@H](CNCc2ccccc2)O[C@H]1n1cnc(C(N)=O)c1N [Formula Va]
3.31
